# system-tested: Ba/F3-FGFR1-transfected cells (Homo sapiens)
# Construct: BAF3-FGFR1 (MIN IL3) pIC50; other: minus IL3
# Sequence (P11362 whole entry, change not shown): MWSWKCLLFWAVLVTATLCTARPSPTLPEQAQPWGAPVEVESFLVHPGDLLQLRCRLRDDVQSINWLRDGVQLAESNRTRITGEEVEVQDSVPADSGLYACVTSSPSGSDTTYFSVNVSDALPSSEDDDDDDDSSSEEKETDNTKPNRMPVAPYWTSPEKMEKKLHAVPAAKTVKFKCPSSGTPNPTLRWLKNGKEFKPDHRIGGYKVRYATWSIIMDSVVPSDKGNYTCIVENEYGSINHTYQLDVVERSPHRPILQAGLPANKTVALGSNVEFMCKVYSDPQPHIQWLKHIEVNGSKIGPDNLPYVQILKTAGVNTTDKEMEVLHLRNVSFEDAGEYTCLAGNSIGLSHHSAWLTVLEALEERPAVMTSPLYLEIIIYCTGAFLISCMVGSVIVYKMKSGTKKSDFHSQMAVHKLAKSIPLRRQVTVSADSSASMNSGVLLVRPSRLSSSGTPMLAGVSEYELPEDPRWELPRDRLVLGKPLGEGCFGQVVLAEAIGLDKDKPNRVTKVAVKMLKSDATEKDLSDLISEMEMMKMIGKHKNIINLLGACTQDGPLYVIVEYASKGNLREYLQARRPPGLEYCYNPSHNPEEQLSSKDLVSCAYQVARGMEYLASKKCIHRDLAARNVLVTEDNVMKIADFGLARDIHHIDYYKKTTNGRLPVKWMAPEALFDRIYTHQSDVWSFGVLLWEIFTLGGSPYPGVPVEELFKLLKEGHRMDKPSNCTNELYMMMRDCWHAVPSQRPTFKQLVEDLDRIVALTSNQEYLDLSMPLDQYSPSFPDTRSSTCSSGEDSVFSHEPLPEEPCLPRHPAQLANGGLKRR
# experiment-summary: Ba/F3-FGFR1 (minus IL3 or plus IL3) cellular proliferation assay
# Assay type: cell-based
# condition-parameters: minus IL3
Can you tell me BAF3-FGFR1 (MIN IL3) pIC50 for the items I'm about to list?
Respond with the number and no other words.

QUERY: Give the value of BAF3-FGFR1 (MIN IL3) pIC50 reported for the following: COc1cc(OC)cc(C(CCO)c2ccc3ncc(-c4cnn(C)c4)nc3c2)c1 (stereo not shown)
RESULT: 5.66

QUERY: Give the value of BAF3-FGFR1 (MIN IL3) pIC50 reported for the following: COc1cc(OC)cc(C(CCCN)c2ccc3ncc(-c4cnn(C)c4)nc3c2)c1.Cl (stereo not shown)
RESULT: 5

QUERY: Give the value of BAF3-FGFR1 (MIN IL3) pIC50 reported for the following: COc1cc(OC)cc(C(CCNC(C)C)c2ccc3ncc(-c4cnn(C)c4)nc3c2)c1 (single isomer, unassigned) [Compound 19a]
RESULT: 6.93

QUERY: Give the value of BAF3-FGFR1 (MIN IL3) pIC50 reported for the following: COc1cc(OC)cc(C(CCN(C)C)c2ccc3ncc(-c4cnn(C)c4)nc3c2)c1.Cl (stereo not shown)
RESULT: 5.95

QUERY: Give the value of BAF3-FGFR1 (MIN IL3) pIC50 reported for the following: `COc1cc(OC)cc(/C(=C\CN(C)C)c2ccc3ncc(-c4cnn(C)c4)nc3c2)c1`
RESULT: 5.81

QUERY: Give the value of BAF3-FGFR1 (MIN IL3) pIC50 reported for the following: COc1cc(OC)cc(C(CCNC(C)C)c2ccc3ncc(-c4cnn(C)c4)nc3c2)c1.Cl (stereo not shown)
RESULT: 6.18

QUERY: Give the value of BAF3-FGFR1 (MIN IL3) pIC50 reported for the following: `COc1cc(OC)cc(/C(=C\CNC(C)C)c2ccc3ncc(-c4cnn(C)c4)nc3c2)c1`
RESULT: 6.49

QUERY: Give the value of BAF3-FGFR1 (MIN IL3) pIC50 reported for the following: `COc1cc(OC)cc(C2(c3ccc4ncc(-c5cnn(C)c5)nc4c3)CC2)c1`
RESULT: 5.23

QUERY: Give the value of BAF3-FGFR1 (MIN IL3) pIC50 reported for the following: `COc1cc(OC)cc(/C(=C/CNC(C)C)c2ccc3ncc(-c4cnn(C)c4)nc3c2)c1`
RESULT: 6.51

QUERY: Give the value of BAF3-FGFR1 (MIN IL3) pIC50 reported for the following: `COc1cc(OC)cc(/C(=C\C#N)c2ccc3ncc(-c4cnn(C)c4)nc3c2)c1`
RESULT: 5.3

QUERY: Give the value of BAF3-FGFR1 (MIN IL3) pIC50 reported for the following: `COc1cc(OC)cc(C(=O)c2ccc3ncc(-c4cnn(C)c4)nc3c2)c1`
RESULT: 5.58

QUERY: Give the value of BAF3-FGFR1 (MIN IL3) pIC50 reported for the following: COc1cc(OC)cc(C(NCCNC(C)C)c2ccc3ncc(-c4cnn(C)c4)nc3c2)c1.Cl (single isomer, unassigned) [Compound 24]
RESULT: 5.16
